For each of the compounds below, state its NanoBRET Fold Response.
# target-desc: PTAFR (Homo sapiens)
# Construct: purchased Promega (in-house HiBiT-GPCR construct library, NanoBRET)
# Sequence (P25105 whole entry): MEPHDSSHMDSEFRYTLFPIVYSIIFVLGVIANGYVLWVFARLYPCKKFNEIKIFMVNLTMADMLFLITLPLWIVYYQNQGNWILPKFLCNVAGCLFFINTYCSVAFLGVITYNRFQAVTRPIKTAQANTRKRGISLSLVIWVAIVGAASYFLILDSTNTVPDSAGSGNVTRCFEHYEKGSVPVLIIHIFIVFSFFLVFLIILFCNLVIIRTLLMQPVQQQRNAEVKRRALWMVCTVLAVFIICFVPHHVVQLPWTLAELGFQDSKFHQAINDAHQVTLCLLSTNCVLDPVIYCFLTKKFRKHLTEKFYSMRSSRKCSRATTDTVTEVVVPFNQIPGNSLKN
# assay-name: NanoBRET screen HiBiT-PTAFR in HEK293
# Type: binding
# settings: PTAFR; tracer 0.1μM
One number for each entry.

Consider the following illustrative entries.
compound	NanoBRET Fold Response
N#CN=C(NCCCOc1cccc(CN2CCCCC2)c1)NCCNC(=O)CCOCCOCCOCCOCCNC(=O)CCc1ccc2n1[B-](F)(F)[N+]1=C(c3ccc[nH]3)C=CC1=C2	0.95
O=C(CCc1ccc2n1[B-](F)(F)[N+]1=C(c3ccc[nH]3)C=CC1=C2)NCc1ccc(C(=O)NCCOCCC(=O)N[C@@H]2CC[C@@]3(O)[C@H]4Cc5ccc(O)c6c5[C@@]3(CCN4CC3CC3)[C@H]2O6)cc1 [Naltrexone-3-NB590]	1.24
CCCn1c(=O)c2[nH]c(-c3ccc(OCC(=O)NCCNC(=O)CCOCCNC(=O)c4ccc(CNC(=O)CCc5ccc6n5[B-](F)(F)[N+]5=C(c7ccc[nH]7)C=CC5=C6)cc4)cc3)nc2n(CCC)c1=O	0.90

Could you tell me NanoBRET Fold Response for each of these compounds? They are listed below.
1. Cc1nc2n(c(=O)c1CCN1CCC(c3noc4cc(F)ccc34)CC1)CCCC2OC(=O)NCCOCCOCCOCCOCCNC(=O)CCc1ccc2n1[B-](F)(F)[N+]1=C(c3ccc[nH]3)C=CC1=C2 (centres unmarked)
2. COc1ccccc1N1CCN(CCCCN2C(=O)c3ccc(CNC(=O)CCOCCNC(=O)c4ccc(CNC(=O)CCc5ccc6n5[B-](F)(F)[N+]5=C(c7ccc[nH]7)C=CC5=C6)cc4)cc3C2=O)CC1

Solution:
[1.00, 1.05]
